Molecular target: T1, extracellular domain of activin receptor type IIB (ActRIIBecd), biotinylated (Homo sapiens (Human), UniProt Q13705 27-117, amino-biotinylated with amine-PEG3-Biotin)
T1 construct: immobilised on a streptavidin-coated sensor chip; also called biotinylated ActRIIBecd; extracellular domain of ActRIIB
T1 sequence: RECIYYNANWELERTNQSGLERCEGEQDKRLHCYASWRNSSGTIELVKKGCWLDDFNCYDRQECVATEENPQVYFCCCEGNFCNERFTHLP
Test: Mean KD column of Table 5; method not restated (BIAcore as Example 5); species also listed in Table 4
Quantity kind: pKd
Conceptually, pKd converts a concentration in mol/L into minus its log10.

Request: Any idea what pKd was measured for SEQ ID NO: 200, cysteine pairs C23-C27^a, C58-C91^a, C59-C93^a (designed binder, disulfides C23-C27 (intra), C58-C91 (intra), C59-C93 (intra)) VDFSDVGWNDWIVAPPGYHAFYCHGECPFPLADHLNSTNHAIVQTLVNSVNSKIPKACCVPTELSAISMLYLDENEKVVLKNYQDMVVEGCGCR ?
Result: 7.73

Request: Data request, read-out pKd, for SEQ ID NO: 276, cysteine pairs C67-C71^a, C8-C41^b, C9-C43^b, C109-C109^b (designed binder, disulfides C67-C71 (intra), C8-C41 (inter), C9-C43 (inter), C109-C109 (inter), homodimer by intermolecular disulfide) NSKIPKACCVPTELSAISMLYLDENEKVVLKNYQDMVVEGCGCRVDFSDVGWNDWIVAPPGYHAFYCHGECPFPLADHLNSTNHAIVQTLVNSVAQAKHKQRKRLKSSCKRHPLY
Result: 8.09

Request: Can you look up the measured pKd of SEQ ID NO: 324, cysteine pairs C79-C80^a (designed binder, disulfides C79-C80 (intra)) AQAKHKQRKRLKSSCKRHPLYVDFKDVGWNDHAVAPPGYHAFYCHGECPFPLADHLNSDNHAIVQTKVNSVNSKIPKACCVPTELSAISMLYLDENEKVVLKNYQDMVVEGCGCR for me?
Result: 7.53

Request: Look at this binder and give its reported pKd. SEQ ID NO: 340, cysteine pairs C15-C15^b, C29-C64^a, C30-C62^a, C88-C92^a (designed binder, disulfides C15-C15 (inter), C29-C64 (intra), C30-C62 (intra), C88-C92 (intra), homodimer by intermolecular disulfide) AQAKHKQRKRLKSSCKRHPLYNSKDPKACCVPTELSAPSPLYLDENEKPVLKNYQDMVVHGCGCRVDFKDVGWNDHAVAPPGYHAFYCHGECPFPLADHLNSDNHAIVQTKVNSV
Result: 8.14

Reference source for all entries: patent US20190071480A1
